Study System: Syk (Homo sapiens)
Construct: purchased Carna Biosciences
Assay Explanation: Syk HTRF assay
Format: biochemical
Condition Summary: IC50 activity level, read-out: Activity Level
pIC50: −log10 of the molar value.
Measured Metric: pIC50

Solved entries:
INSERT INTO results (compound, measured_metric, value_measured) VALUES
  ('NC(=O)c1ccc(Nc2nc3cccc(NC4CCCNC4)n3n2)cc1 (stereo in doubt)', 'pIC50', '5.00 to 6.00'),
  ('NC(=O)c1ccc(Cc2cccc3nc(Nc4ccccc4)nn23)cc1', 'pIC50', '5.00 to 6.00'),
  ('Cn1ncc2ccc(Nc3nc4cccc(NC5CCCNC5)n4n3)cc21 (stereo in doubt)', 'pIC50', '6.00 to 6.30'),
  ('c1cncc(Nc2nc3cccc(N[C@@H]4CCCNC4)n3n2)c1', 'pIC50', '5.00 to 6.00');

## Input Entry `O[C@H]1CC[C@@H](Nc2cccc3nc(Nc4ccc(-c5nc[nH]n5)cc4)nn23)CC1` : reported pIC50 = ?
## Output 6.60 to 11.30

## Input Entry `NC(=O)c1ccc(Nc2nc3cccc(NC4CCNCC4)n3n2)cc1` : reported pIC50 = ?
## Output 5.00 to 6.00

## Input Entry c1cncc(Nc2nc3cccc(NC4CCCNC4)n3n2)c1 (stereo in doubt) : reported pIC50 = ?
## Output 6.60 to 11.30

## Input Entry OC1CC[C@H](Nc2cccc3nc(Nc4ccc(C(F)(F)F)cc4)nn23)C1 (stereo in doubt) : reported pIC50 = ?
## Output 6.30 to 6.60

## Input Entry `NC(=O)c1cccc(Cc2cccc3nc(Nc4ccccc4)nn23)c1` : reported pIC50 = ?
## Output 6.30 to 6.60

## Input Entry `COCc1n[nH]c2cc(Nc3nc4cccc(CN5CCNC(=O)C5)n4n3)ccc12` : reported pIC50 = ?
## Output 6.60 to 11.30

## Input Entry `O=C1NCc2c1cccc2-c1cccc2nc(Nc3ccccc3)nn12` : reported pIC50 = ?
## Output 5.00 to 6.00

## Input Entry `COCc1n[nH]c2cc(Nc3nc4cccc(CC5CCOCC5)n4n3)ccc12` : reported pIC50 = ?
## Output 6.60 to 11.30

## Input Entry `c1ccc(Nc2nc3cccc(NC4CCOCC4)n3n2)cc1` : reported pIC50 = ?
## Output 5.00 to 6.00

## Input Entry `c1ccc(Nc2nc3cccc(C4CCCCC4)n3n2)cc1` : reported pIC50 = ?
## Output 5.00 to 6.00

## Input Entry `COc1cc(-c2cccc3nc(Nc4ccccc4)nn23)ccn1` : reported pIC50 = ?
## Output 6.00 to 6.30

## Input Entry `c1ccc(Nc2nc3cccc(OC4CCCCC4)n3n2)cc1` : reported pIC50 = ?
## Output 5.00 to 6.00

## Input Entry `FC(F)(F)c1ccc(Nc2nc3cccc(N[C@H]4CCCNC4)n3n2)cc1` : reported pIC50 = ?
## Output 6.60 to 11.30

## Input Entry c1ccc(Nc2nc3cccc(NC4CCCNC4)n3n2)cc1 (stereo in doubt) : reported pIC50 = ?
## Output 5.00 to 6.00

###

# IC50 listing for each entry below
Study System: Syk (Homo sapiens)
Construct: purchased Carna Biosciences
Assay Explanation: Syk HTRF assay
Type: biochemical
Condition Summary: activity levels A-D, read-out: Activity Level (IC50 in the Syk HTRF assay)

Solved entries:
INSERT INTO assay_data (compound, value_measured) VALUES
  ('OC1CCN(c2cccc3nc(Nc4ccc(C(F)(F)F)cc4)nn23)C1 (stereo in doubt)', '250 to 500 nM'),
  ('OC[C@H]1CCN(Cc2cccc3nc(Nc4ccc(C(F)(F)F)cc4)nn23)C1', '1000 to 10000 nM'),
  ('OCC1CCN(Cc2cccc3nc(Nc4ccc(C(F)(F)F)cc4)nn23)C1 (stereo in doubt)', '1000 to 10000 nM'),
  ('OCCOc1cc(Nc2nc3cccc(N[C@H]4CC[C@@H](O)CC4)n3n2)ccn1', '0.005 to 250 nM');

## Input Entry `O[C@H]1CC[C@@H](Nc2cccc3nc(Nc4ccc(N5CCOCC5)nc4)nn23)CC1` : reported IC50 = ?
## Output 0.005 to 250 nM

## Input Entry `COc1cncc(Nc2nc3cccc(N[C@H]4CC[C@@H](O)CC4)n3n2)c1` : reported IC50 = ?
## Output 500 to 1000 nM

## Input Entry `O=C1CN(Cc2cccc3nc(Nc4ccc(N5CCC(O)CC5)nc4)nn23)CCN1` : reported IC50 = ?
## Output 500 to 1000 nM

## Input Entry `COCc1n[nH]c2cc(Nc3nc4cccc(N[C@H]5CC[C@@H](O)CC5)n4n3)ccc12` : reported IC50 = ?
## Output 0.005 to 250 nM

## Input Entry `CNC(=O)c1ccc(Nc2nc3cccc(OC4CCNCC4)n3n2)cc1` : reported IC50 = ?
## Output 1000 to 10000 nM

## Input Entry `NC(=O)c1cc(Nc2nc3cccc(N[C@H]4CC[C@@H](O)CC4)n3n2)ccc1F` : reported IC50 = ?
## Output 1000 to 10000 nM

## Input Entry `N#Cc1cccc(Nc2nc3cccc(N[C@H]4CC[C@@H](O)CC4)n3n2)c1` : reported IC50 = ?
## Output 250 to 500 nM

## Input Entry OC1CCN(Cc2cccc3nc(Nc4ccc(C(F)(F)F)cc4)nn23)C1 (stereo in doubt) : reported IC50 = ?
## Output 1000 to 10000 nM

Source: patent US8299056B2
